Values from PubChem BioAssay AID608

Reported Kd values are given for each entry in this list.
target: Peptidyl-prolyl cis-trans isomerase FKBP1A (Homo sapiens) (UniProt P62942); assay: small-molecule binding to FKBP12 – biophysical, NMR detection (AID 608); conditions: purified FKBP12
Sequence (P62942 whole entry, looked up): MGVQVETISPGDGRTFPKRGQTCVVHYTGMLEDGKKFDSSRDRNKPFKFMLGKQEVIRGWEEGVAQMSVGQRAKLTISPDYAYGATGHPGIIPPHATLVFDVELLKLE
Active and inactive are the calls of the source. The rule behind the calls is not given here.

# COMPOUND, Kd
data = [
    ("C[C@H]1C(=O)O[C@@H]2CCN3CC=C(COC(=O)[C@](C)(O)[C@]1(C)O)[C@H]23", "> 4 mM (inactive)"),
]

# Kd of CC(C)=CC(=O)Nc1ccccc1Br = > 4 mM (inactive)

# Kd of CSc1nnc2ccc(-c3cccnc3)nn12 = > 4 mM (inactive)

# Kd of Cc1cc(NC(=O)NCCCSc2nncn2C)no1 = > 4 mM (inactive)

# Kd of CC(=O)Nc1nc2c(s1)C(=O)NCCC2 = > 4 mM (inactive)

# Kd of COc1ccc2c(c1OC)C(=O)OC2[C@H]1c2c(cc3c(c2OC)OCO3)CCN1C (stereo partly specified) = > 4 mM (inactive)
